Sourced from the supplement of paper PMC3545927

Target: furin, P09958;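 further: purified furin at 1:10 enzyme:substrate in 50 mM HEPES pH 7.5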
Sequence (P09958 whole entry): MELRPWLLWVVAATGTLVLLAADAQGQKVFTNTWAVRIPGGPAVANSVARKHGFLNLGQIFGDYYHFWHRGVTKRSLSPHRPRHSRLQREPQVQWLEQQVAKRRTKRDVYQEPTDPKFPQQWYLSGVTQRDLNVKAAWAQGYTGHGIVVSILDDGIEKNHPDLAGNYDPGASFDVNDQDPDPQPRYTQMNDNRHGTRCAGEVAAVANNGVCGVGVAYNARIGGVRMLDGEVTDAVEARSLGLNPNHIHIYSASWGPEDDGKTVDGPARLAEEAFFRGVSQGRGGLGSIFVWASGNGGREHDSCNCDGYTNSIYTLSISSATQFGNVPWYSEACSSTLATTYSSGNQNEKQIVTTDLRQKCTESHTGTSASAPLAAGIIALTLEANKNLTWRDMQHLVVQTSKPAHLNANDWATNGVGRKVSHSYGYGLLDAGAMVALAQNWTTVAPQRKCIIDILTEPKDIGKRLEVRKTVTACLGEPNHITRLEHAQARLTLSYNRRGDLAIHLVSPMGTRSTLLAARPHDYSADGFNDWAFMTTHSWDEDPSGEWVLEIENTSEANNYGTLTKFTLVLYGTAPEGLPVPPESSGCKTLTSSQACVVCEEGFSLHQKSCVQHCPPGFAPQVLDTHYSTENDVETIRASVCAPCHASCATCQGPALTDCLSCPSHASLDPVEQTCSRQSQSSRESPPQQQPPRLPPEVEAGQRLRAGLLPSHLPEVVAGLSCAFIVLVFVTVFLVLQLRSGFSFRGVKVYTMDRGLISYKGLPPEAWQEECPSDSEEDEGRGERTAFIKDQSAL
Assay: furin cleavage Z-score vs untreated control; higher = more cleavage, active = 3.5 or more, inactive = 1 or less, 8 variable residues between constant flanks
Conditions: 15 min
This is one part of the list. The hit rate among all sequences tested is not known here.
Grouping rule (furin cleavage Z-score): lower bin (below -0.8), middle bin (-0.8 to below 8), upper bin (8 or more)

QUERY_SEQUENCE	LABEL_VALUE
CAKRSRRIRPAGNASASA [FS-1461]	middle bin

Into which category would you place CAYPGHITGHAGNASASA [HC315] ?
lower bin

Into which category would you place CAILRRHKRDAGNASASA [FS-1214] ?
upper bin

Given CAKRLRRRREAGNASASA [FS-1224] , name the class its furin cleavage Z-score places it in.
middle bin

Looking at CALAPGAKQNAGNASASA [HC362] , which class would you pick?
lower bin

Entry CAREKRRGVTAGNASASA [FS-1819] belongs to which category?
lower bin

Bin? CASRDRRRREAGNASASA [FS-195]
upper bin

Which band does CAYLEVVTSTAGNASASA [HC2269] fall in?
middle bin
